Each entry below carries its recorded P.F.U. Count.
- System: Herpes simplex II virus
- Test Method Notes: Back titration plaque assay: PFU counts at stated amounts of compound under test and arginine
- Assay type: cell-based, Herpes simplex II virus (BSC cells)
- Run Parameters: compound 300 μg/ml; arginine 5.0 μg/ml
# output: bare number, no unit

{"Compound": "CC(CCN)CC(N)C(=O)O (centres unmarked)", "System": "Herpes simplex II virus", "P.F.U. Count": 169}
{"Compound": "NCCCCCC(N)C(=O)O (centres unmarked) [drawing 17]", "System": "Herpes simplex II virus", "P.F.U. Count": 0}
{"Compound": "CC(CN)CC[C@H](N)C(=O)O (some centres unmarked)", "System": "Herpes simplex II virus", "P.F.U. Count": 0}
{"Compound": "CC(N)CCCC(N)C(=O)O (centres unmarked)", "System": "Herpes simplex II virus", "P.F.U. Count": 0}

Tested on Herpes simplex II virus, the item CC(N)CCCCC(N)C(=O)O (centres unmarked) [drawing 18] showed P.F.U. Count equal to 0
